# testMethodNotes: protein stability index of a GFP-peptide fusion (yeast GPS) (PSI 1-4); higher = more stable; sorted into four equal gates, so the index is relative within each strain
# studyConditions: doa10∆
The following sequences are listed with their measured protein stability index values.
readout: protein stability index

>  <seqText>
NNNNSNNHNMRNNSNNK [SWI1]

>  <readout>
protein stability index

>  <endpointResult>
3.05

$$$$
>  <seqText>
KEISTRVFNAKDTTGPK [YCS4]

>  <readout>
protein stability index

>  <endpointResult>
3.04

$$$$
>  <seqText>
IAKSRYWYFLQKLHKVK [RPL20A]

>  <readout>
protein stability index

>  <endpointResult>
3.06

$$$$
>  <seqText>
EQKKTATEVTPQEPKHI [RPC19]

>  <readout>
protein stability index

>  <endpointResult>
2.45

$$$$
>  <seqText>
RRSTPFSKIAEYYRIQK [ESC2]

>  <readout>
protein stability index

>  <endpointResult>
2.77

$$$$
>  <seqText>
KIFTPNLLQISAAELER [SNF5]

>  <readout>
protein stability index

>  <endpointResult>
1.77

$$$$
>  <seqText>
PSGAKKVISSDARGVIG [RPL2A]

>  <readout>
protein stability index

>  <endpointResult>
2.88

$$$$

###

# testMethodNotes: protein stability index of a GFP-peptide fusion (yeast GPS) (PSI 1-4); higher = more stable; sorted into four equal gates, so the index is relative within each strain
# studyConditions: san1∆
Quick rule: protein stability index of at least 3 means t, below that means f.

>  <seqText>
NDLRVSLNEKNALHTER [SMC1]

>  <labelClass>
f

$$$$
>  <seqText>
ESNVNDSDMLTKSHNTV [NUT1]

>  <labelClass>
t

$$$$
>  <seqText>
TWRTQLAASEIGISIVG [ECM29]

>  <labelClass>
f

$$$$
>  <seqText>
TNLISKISLLRPSFQNN [SWP82]

>  <labelClass>
f

$$$$
>  <seqText>
RENNFRVASDTVHEMEE [SMC4]

>  <labelClass>
t

$$$$
>  <seqText>
QLFNWCLMRSLHKLELK [DSN1]

>  <labelClass>
f

$$$$
>  <seqText>
RLKEKGSRVLIFSQMSR [ISW2]

>  <labelClass>
f

$$$$

###

# testMethodNotes: protein stability index of a GFP-peptide fusion (yeast GPS) (PSI 1-4); higher = more stable; sorted into four equal gates, so the index is relative within each strain
# studyConditions: ubr1∆

>  <seqText>
KSFYSTATGAASKSGKL [CYT1]

>  <protein stability index>
2.75

$$$$
>  <seqText>
NALYDTLLESNLCKIIE [RPN6]

>  <protein stability index>
2.41

$$$$
>  <seqText>
DVDQHGNDNNSDSNANA [SWI3]

>  <protein stability index>
3.25

$$$$
>  <seqText>
KDRYINGDKKVDIYSLP [YMR129W/POM152]

>  <protein stability index>
3.23

$$$$
>  <seqText>
RSINNLIQEHDSRKNRE [BRN1]

>  <protein stability index>
3.38

$$$$

###

# testMethodNotes: protein stability index of a GFP-peptide fusion (yeast GPS) (PSI 1-4); higher = more stable; sorted into four equal gates, so the index is relative within each strain
# studyConditions: ubr1∆

>  <seqText>
NSSNLSYNNTGISDDEN [RRP4]

>  <protein stability index>
2.79

$$$$
>  <seqText>
GDPALVYKFMSLAKSSA [ECM29]

>  <protein stability index>
3.09

$$$$
>  <seqText>
VSKQLGNGLVDENKVEA [YAR002W/NUP60]

>  <protein stability index>
3.21

$$$$
>  <seqText>
IKIKSLEYEISKLKKET [YIL149C/MLP2]

>  <protein stability index>
3.06

$$$$
>  <seqText>
KHKKKHLKHENANDETT [RPB4]

>  <protein stability index>
3.19

$$$$
>  <seqText>
KAAFIRVNGSEFVHKYL [RPT3]

>  <protein stability index>
2.77

$$$$
>  <seqText>
DTSNWELSDSWRAHDSS [YGL100W/SEH1]

>  <protein stability index>
3.31

$$$$

###

# testMethodNotes: protein stability index of a GFP-peptide fusion (yeast GPS) (PSI 1-4); higher = more stable; sorted into four equal gates, so the index is relative within each strain
# studyConditions: pdr5∆
The following sequences are listed with their measured protein stability index values.
readout: protein stability index

>  <seqText>
DTYPYLTGEWSTKFDYP [FAS1]

>  <endpointResult>
2.96

$$$$
>  <seqText>
RYADAGNIDTKNNILGS [RRP43]

>  <endpointResult>
3.06

$$$$
>  <seqText>
TENATENDQQDNEEWMN [LIN1]

>  <endpointResult>
3.03

$$$$
>  <seqText>
RDYSKEILGINLANEQP [SIR4]

>  <endpointResult>
3.04

$$$$
>  <seqText>
EYSDNFPVSLSQPSKKS [SIR4]

>  <endpointResult>
3.05

$$$$

###

The following sequences are listed with their measured protein stability index values.
# testMethodNotes: protein stability index of a GFP-peptide fusion (yeast GPS) (PSI 1-4); higher = more stable; sorted into four equal gates, so the index is relative within each strain
# studyConditions: pdr5∆

>  <seqText>
DPESRTQSYNNQNTLKE [POP1]

>  <protein stability index>
2.69

$$$$
>  <seqText>
DTCAVSFDAVSDSIELL [YJR042W/NUP85]

>  <protein stability index>
3.46

$$$$
>  <seqText>
DYKTAFSYFFESFESYH [RPN6]

>  <protein stability index>
2.77

$$$$
>  <seqText>
VREYEQPDANKKKRSRT [ISW2]

>  <protein stability index>
3.31

$$$$
>  <seqText>
HINKIPSNSTTTLHGPG [SRB8]

>  <protein stability index>
3.17

$$$$
>  <seqText>
KGPRFRKLTSQEINDRL [PRE8]

>  <protein stability index>
3.19

$$$$
>  <seqText>
VVIEKRRKKILNEIELD [GRR1]

>  <protein stability index>
2.77

$$$$
>  <seqText>
LKNLLRSNFRVNLSQEA [SNU114]

>  <protein stability index>
2.26

$$$$
>  <seqText>
ALDFRNVSIVANYIKER [SMC4]

>  <protein stability index>
2.04

$$$$
>  <seqText>
RAFQKQPHIFNNPKVKT [RPS11A]

>  <protein stability index>
2.48

$$$$
>  <seqText>
IAYGASQLLLERLMISS [RET1]

>  <protein stability index>
1.94

$$$$
>  <seqText>
VKKASGEIVSINQINEA [RPL20A]

>  <protein stability index>
2.82

$$$$
>  <seqText>
SGHFSTDSRTGQSTILV [CDC53]

>  <protein stability index>
2.8

$$$$
>  <seqText>
FDPFQAVSRSMTDIWNT [ECM29]

>  <protein stability index>
2.73

$$$$
>  <seqText>
PGRLDRKIEFPSLRDRR [RPT3]

>  <protein stability index>
3.31

$$$$
>  <seqText>
GISDMCRLFFTELASKD [YCS4]

>  <protein stability index>
2.4

$$$$
>  <seqText>
SPPIIDLFSNNNYNSRI [MED1]

>  <protein stability index>
2.92

$$$$
>  <seqText>
QWSRIVLQNVFKLVSTP [MED1]

>  <protein stability index>
1.24

$$$$

###

# testMethodNotes: protein stability index of a GFP-peptide fusion (yeast GPS) (PSI 1-4); higher = more stable; sorted into four equal gates, so the index is relative within each strain
# studyConditions: ubr1∆
The following sequences are listed with their measured protein stability index values.
readout: protein stability index

>  <seqText>
DSDMLTKSHNTVQSWLC [NUT1]

>  <endpointResult>
2.87

$$$$
>  <seqText>
EETPSKTNKISILKRHS [NUT1]

>  <endpointResult>
3.1

$$$$
>  <seqText>
LIKNGKKVTAFVPNDGC [RPS23A]

>  <endpointResult>
3.38

$$$$
>  <seqText>
PVGRELDPISLILIPGE [RPN13]

>  <endpointResult>
3.23

$$$$
>  <seqText>
ISALTQTEIKDIILGQN [PRP8]

>  <endpointResult>
1.99

$$$$

###

The following sequences are listed with their measured protein stability index values.
# testMethodNotes: protein stability index of a GFP-peptide fusion (yeast GPS) (PSI 1-4); higher = more stable; sorted into four equal gates, so the index is relative within each strain
# studyConditions: pdr5∆

>  <seqText>
LPIYDSLMSSQNKLFYI [SIR3]

>  <protein stability index>
2.01

$$$$
>  <seqText>
EGPKKCIQVNCLNCEKS [SNM1]

>  <protein stability index>
2.04

$$$$
>  <seqText>
NFGGGNNTTPSSTGNAN [YJL041W/NSP1]

>  <protein stability index>
2.02

$$$$

###

# testMethodNotes: protein stability index of a GFP-peptide fusion (yeast GPS) (PSI 1-4); higher = more stable; sorted into four equal gates, so the index is relative within each strain
# studyConditions: san1∆
The following sequences are listed with their measured protein stability index values.
readout: protein stability index

>  <seqText>
GLALQLFKKLKEENDEG [RPN2]

>  <endpointResult>
2.96

$$$$
>  <seqText>
RAQEEVKRIQSVPLVIG [RPT3]

>  <endpointResult>
3.04

$$$$
>  <seqText>
PKAMTDTDNECVAAWGV [HRT1]

>  <endpointResult>
3.03

$$$$
